Entries and their Bas
Organism: Rattus norvegicus
Test: Open TG-GATES - Regimen: Daily Repeat
Type: toxicity, organism-based, Sprague-Dawley
Parameters: regimen Daily Repeat, gender Male, age 6 weeks
Settings: in vivo, po, 0 mg/kg, 72 h, tissue Blood, route gavage, dose level Control, time 3 day
experimental readout: Bas

INSERT INTO results (compound, measurement) VALUES
  ('O=[N+]([O-])c1ccc(O)c([N+](=O)[O-])c1 [2,4-DINITROPHENOL]', '0%'),
  ('C[C@H]1O[C@H](O[C@H]2[C@H](O)[C@@H](O)[C@@H](O[C@H]3[C@H](O)[C@@H](O)C(O)O[C@@H]3CO)O[C@@H]2CO)[C@H](O)[C@@H](O)[C@@H]1N[C@H]1C=C(CO)[C@@H](O)[C@H](O)[C@H]1O (some centres undefined) [ACARBOSE]', '0%'),
  ('Cc1cccc(C)c1OCC(C)N (centres undefined) [MEXILETINE]', '0%'),
  ('OCCN1CCN(CCCN2c3ccccc3Sc3ccc(C(F)(F)F)cc32)CC1 [FLUPHENAZINE]', '0%'),
  ('O=C1CN(/N=C/c2ccc([N+](=O)[O-])o2)C(=O)N1 [NITROFURANTOIN]', '0%'),
  ('Cn1cc[nH]c1=S [METHIMAZOLE]', '0%'),
  ('C[C@H]1C(=O)O[C@@H]2CCN3CC=C(COC(=O)[C@](C)(O)[C@]1(C)O)[C@H]23 [MONOCROTALINE]', '0%'),
  ('CCOC(=O)C(C)(C)Oc1ccc(Cl)cc1 [CLOFIBRATE]', '0%'),
  ('C=C(C)[C@H]1Cc2c(ccc3c2O[C@@H]2COc4cc(OC)c(OC)cc4[C@@H]2C3=O)O1 [ROTENONE]', '0%');
